- protocol: soluble on expression in E. coli; label from the status in PepcDB or PDB records
metric.name: soluble on expression in E. coli

INSERT INTO measurements (residue_string, metric_name, reading) VALUES
  ('MAHHHHHHMSGRLRLYKEKLEGYNRFYSIVKTIKMVTMAKFRQAQVRIKTRDYTLRYTEKAFSKPGQLVGDSPQAKAIYIPVMTNRGSCGALNSNVVKVIDSVASSRAYLMPLGKRGIESLSKLYPSSFRMGIVNDMHEPMHFAYATYVWENAQQLCPEADRVHVIFHRCVSAGSQKQCYYNIPSYEKWREDLADASSTENQKSRYLFANTLLNEDEQMIRDFYDFHATLAILNAVCENELSEQAARLVAVEGQLSNISTLQQKTSSLYNKTRQSSITSSLIEIISAMTSLEGNAAKGVQRTNFWEGARMK', 'soluble on expression in E. coli', 'not soluble'),
  ('MTSLCNKELSDTLVGLYDDYKRGFDIGEELKLCVDLALTLELELSIHRLSETDTVLKKEIIQTLQNRRNSHSNEDETIDETGTIIQMDFKERN', 'soluble on expression in E. coli', 'soluble'),
  ('MGSDKIHHHHHHLIPVLDTDAWVEKLLSTRRSAEGKILAFYEHRMEAICRDPRLLLMPADDHLAHRGDGVFESMKFEGRRLYQLDAHLERMERSARGIYLTPPCTQSVLRDIVLQVARAADTPDGCIRILLGRGPGGFGIDPAECPVPSLYVVAYSLTPKPEEWYEKGVTAFRTSIPAKQGYLATIKNANYIPNVLMKLEARSRGCDIPVSFDENDFIAEGPTENLCLVDADGTLVVPEFTNALSGTTIMRVIDLVRDEMNVAFRKVREDELYRAAEVMVLGTTTECVSVVSFEGQPVGGGRPGPVARRFRELLRRDLAENGISF', 'soluble on expression in E. coli', 'not soluble'),
  ('MGSDKIHHHHHHMQRQTELKNWLQTVYPERDFDLSFAAADADFRRYFRAAFSDGGSVVCMDAPPDKMSVAPYLKVQKLFDMVNVPQVLHADTDLGFVVLNDLGNTTFLTAMLQEQGEAAHKALLLEAIGELVGLQKASREGVLPEYDRETMLREINLFPEWFVAKELGRELTFKQRQLWQQTADTLLPPLLAQPKVYVHRDFIVRNLMLTRGRPGVLDFQDALYGPISYDLVSLLRDAFIEWEEEFVLDLVIRYWEKARAAGLPVPAEFDEFYRRFEWMGVQRHLKVAGIFARLYYRDGKDKYRPEIPRFLNYLRRVSRRYAELAPLYALLVELVGDEELETGFTF', 'soluble on expression in E. coli', 'not soluble');

# soluble on expression in E. coli of GSHMTPPHNYLAVIKVVGIGGGGVNAVNRMIEQGLKGVEFIAINTDAQALLMSDADVKLDVGRDSTRGLGAGADPEVGRKAAEDAKDEIEELLRGADMVFVTAGEGGGTGTGGAPVVASIARKLGALTVGVVTRPFSFEGKRRSNQAENGIAALRESCDTLIVIPNDRLLQMGDAAVSLMDAFRSADEVLLNGVQGITDLITTPGLINVDFADVKGIMSGAGTALMGIGSARGEGRSLKAAEIAINSPLLEASMEGAQGVLMSIAGGSDLGLFEINEAASLVQDAAHPDANIIFGTVIDDSLGDEVRVTVIAAGFDVSGPGRKPVMGETGGAHRIESAKAGKLTSTLFEPVDAVSVPLHTNGATLSIGGDDDDVDVPPFMRR = soluble

meta.source: the DeepSol protein solubility set
